Origin of measurements: patent US20240132479A1

assay-summary: in vitro
Format: cell-based
conditions-used: human; THP-1 cells; read-out: THP-1 Cytotoxicity (IC50 μg/ml)
Protocol: The compounds of Examples 2, 21A, and 19 were tested for 1) for ex vivo efficacy and 2) cytotoxicity. Ex vivo efficacy was determined by inhibition of Mycobacterium tuberculosis (Mtb) H37Rv, Mycobacterium avium complex (ATCC 700891 MAC 101), and Mycobacterium abscessus (ATCC 19977). […]
measured-quantity: IC50

>>> print(df.to_string())
                                   compound  measured_quantity         result
0  CC(C)N(C(=O)CCc1nc2cc(Cl)c(Cl)cc2[nH]1)C(C)C               IC50  ≤ 0.125 µg/mL
1  Cc1cc2nc(SCC(=O)N(C(C)C)C(C)C)[nH]c2cc1C               IC50      0.5 µg/mL
2  Cc1cc2nc(CCC(=O)N(C(C)C)C(C)C)[nH]c2cc1C [Example 21A]               IC50  ≤ 0.125 µg/mL

----------
assay-summary: in vitro
Type: cell-based
conditions-used: human; HepG2 cells; read-out: HepG2 Cytotoxicity (IC50 μg/ml)
measured-quantity: IC50

In [3]: df
Out[3]:
                                   molecule         result
0  Cc1cc2nc(CCC(=O)N(C(C)C)C(C)C)[nH]c2cc1C [Example 21A]  ≤ 0.125 µg/mL
1  CC(C)N(C(=O)CCc1nc2cc(Cl)c(Cl)cc2[nH]1)C(C)C [Example 19]  ≤ 0.125 µg/mL
2  Cc1cc2nc(SCC(=O)N(C(C)C)C(C)C)[nH]c2cc1C [Example 2]      0.5 µg/mL

----------
assay-summary: in vitro
Format: cell-based
conditions-used: human; HeLa cells; read-out: HeLa Cytotoxicity (IC50 μg/ml)
measured-quantity: IC50 (µg/mL)

>>> df
                                   compound  quantitative_result
0  CC(C)N(C(=O)CCc1nc2cc(Cl)c(Cl)cc2[nH]1)C(C)C                    1
1  Cc1cc2nc(SCC(=O)N(C(C)C)C(C)C)[nH]c2cc1C                    4
2  Cc1cc2nc(CCC(=O)N(C(C)C)C(C)C)[nH]c2cc1C [Example 21A]                    2
